Assay: qHTS profiling for inhibitors of Plasmodium falciparum proliferation (AID 504749);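 further: 0% = DMSO vehicle and full inhibition = artemisinin control; nearly all actives have a fitted effect of over 60% in size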
Conditions: P. falciparum in erythrocytes, SYBR Green DNA, 72 h; at 28.7 µM (top of the series); parasite line B
Results filed as inconclusive are left out.
quantity measured: activity, negative = inhibition (%)
Lab book: enter the figure in %, no units written.

[[record]]
molecule = "CCC(N)Cc1c[nH]c2ccccc12 (configuration not stated)"
quantity_measured = "activity, negative = inhibition"
measurement = 9.32

[[record]]
molecule = "C[N+]1(C)C2CCC1CC(OC(=O)c1c[nH]c3ccccc13)C2 (configuration not stated)"
quantity_measured = "activity, negative = inhibition"
measurement = 10.8

[[record]]
molecule = "S=C(S)N1CCNCC1"
quantity_measured = "activity, negative = inhibition"
measurement = 4.75


[in] So what's the measured activity, negative = inhibition for this one? `O=CC=O`
[out] 0.163

[in] So what's the measured activity, negative = inhibition for this one? `Oc1cc(Cl)c(Cl)cc1Cl`
[out] -8.4

[in] So what's the measured activity, negative = inhibition for this one? COCC(C)N(C(=O)CCl)c1c(C)csc1C (configuration not stated)
[out] -2.46

[in] So what's the measured activity, negative = inhibition for this one? `CC(=O)O[C@H]1CC[C@H]2[C@@H]3CCC4=CC(=O)CCC4=C3C=C[C@]12C`
[out] 0.383

[in] So what's the measured activity, negative = inhibition for this one? COc1ccc(OC)c(C(O)C(C)N)c1 (configuration not stated)
[out] -2.03

----------
Target: Arylsulfatase A (Homo sapiens)
Assay: qHTS screen for enhancers of Arylsulfatase A (ASA1): LOPAC Validation Assay (AID 720538); further: potency means the concentration at half of the fitted maximal effect
Details: ASA enzyme activity, LOPAC qHTS enhancer assay; series mostly up to 57.5 µM
Inconclusive results are not listed. The source made the active and inactive calls. Calls come from the whole dose curve; as a rule, active = well fitted activation curve with a large enough effect; inconclusive = small, poorly fitted or top-dose-only effect; inactive = no such curve, though single readings can be large or run the other way.
quantity measured: Potency

[[record]]
compound = "CC(=O)c1c(O)c(C)c(O)c(Cc2c(O)c3c(c(C(=O)/C=C/c4ccccc4)c2O)OC(C)(C)C=C3)c1O"
quantity_measured = "Potency"
measurement = "inactive"

[[record]]
compound = "OCc1cnc[nH]1"
quantity_measured = "Potency"
measurement = "inactive"

[[record]]
compound = "O=C1CC[C@@]2(O)C3Cc4ccc(O)c5c4C2(CCN3CC2CC2)[C@H]1O5 (stereo partly drawn)"
quantity_measured = "Potency"
measurement = "0.426 µM (active)"


----------
Molecular target: Chromobox protein homolog 1 (Homo sapiens) (UniProt P83916)
Sequence (P83916 whole entry, looked up): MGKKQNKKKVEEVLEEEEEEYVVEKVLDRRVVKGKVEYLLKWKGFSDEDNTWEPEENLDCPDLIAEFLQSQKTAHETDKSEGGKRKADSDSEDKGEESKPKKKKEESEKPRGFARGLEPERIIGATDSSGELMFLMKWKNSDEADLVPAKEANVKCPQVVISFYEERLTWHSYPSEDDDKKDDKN
Experiment: qHTS Validation Assay for Inhibitors of HP1-beta Chromodomain Interactions with Methylated Histone Tails (AID 488953);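 further: loss of AlphaScreen luminescence from HP1-beta binding biotinylated H3K9me3 peptide; on the % scale 0 is the no-effect control and ±100 the full control effect; nearly all actives have a fitted effect of over 50% in size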
Conditions: HP1-beta chromodomain / methylated histone peptide binding assay; series mostly up to 114 µM
Results filed as inconclusive are left out. Calls of active or inactive are those of the source. Calls come from the whole dose curve; as a rule, active = well fitted inhibition curve with a large enough effect; inconclusive = small, poorly fitted or top-dose-only effect; inactive = no such curve, though single readings can be large or run the other way.
quantity measured: outcome

[[record]]
chemical_string = "COc1ccc2c(c1)/C(=C/c1cnc[nH]1)C(=O)N2"
measurement = "inactive"

[[record]]
chemical_string = "C[C@@H]1O[C@H](C[N+](C)(C)C)CS1"
measurement = "inactive"

[[record]]
chemical_string = "C[N+]1(C)CCc2cc3c(cc2[C@H]1[C@@H]1OC(=O)c2c1ccc1c2OCO1)OCO3"
measurement = "inactive"


----------
Assay: Quantitative high throughput screen for delayed death inhibitors of the malarial parasite plastid, 96 hour incubation (AID 488745); further: nearly all actives have a fitted effect of over 70% in size
Settings: Plasmodium falciparum growth; series mostly up to 28.7 µM
Records with an inconclusive call do not appear. Calls of active or inactive are those of the source. Calls come from the whole dose curve; as a rule, active = well fitted inhibition curve with a large enough effect; inconclusive = small, poorly fitted or top-dose-only effect, or effect the other way; inactive = no such curve, though single readings can be large or run the other way.
Use one of these outcomes when replying: true = active, false = inactive

Use these answered entries as a reference point.
[[record]]
compound = "C[Se]C[C@H](N)C(=O)O"
group = "false"

[[record]]
compound = "C[N+](C)(C)CCOC(=O)CBr"
group = "false"

[[record]]
compound = "NCCc1ccc(S(=O)(=O)F)cc1"
group = "false"

[[record]]
compound = "C/C(O)=C(\\C#N)C(=O)Nc1cc(Br)ccc1Br"
group = "false"

[[record]]
compound = "CCCN(CCC)C1Cc2cc(OC)c(OC)cc2C1"
group = "false"

[[record]]
compound = "C=CCN1CCC23c4c5ccc(O)c4O[C@H]2C(=O)CC[C@@]3(O)C1C5 (some centres not stated)"
group = "false"


[in] Which outcome was entered for the compound `CCCCCCC(C)(C)c1ccc([C@@H]2C[C@H](O)CC[C@H]2CCCO)c(O)c1` in this test?
[out] true

[in] Which outcome was entered for the compound `CC(=O)NBr` in this test?
[out] false

[in] Which outcome was entered for the compound `O=S1(=O)N(CCN2CC=C(c3c[nH]c4cc(F)ccc34)CC2)c2cccc3c2N1CCC3` in this test?
[out] true

[in] Which outcome was entered for the compound CC(C)(C)c1o[nH]c(=O)c1CC(N)C(=O)O (configuration not stated) in this test?
[out] false

[in] Which outcome was entered for the compound `COc1ccc2[nH]cc(CCN)c2c1` in this test?
[out] false

[in] Which outcome was entered for the compound `CCCN1CC[C@@H]2c3cc(O)ccc3CC[C@@H]21` in this test?
[out] false

[in] Which outcome was entered for the compound `O=[N+]([O-])c1ccc2nc(N3CCNCC3)ccc2c1` in this test?
[out] false

[in] Which outcome was entered for the compound NC(CCCCCP(=O)(O)O)C(=O)O (configuration not stated) in this test?
[out] false

[in] Which outcome was entered for the compound `COc1ccc2c(c1)[C@@]13CCCC[C@H]1[C@@H](C2)NCC3` in this test?
[out] false

[in] Which outcome was entered for the compound CCCN(CCC)C1CCc2cccc(O)c2C1 (configuration not stated) in this test?
[out] false

[in] Which outcome was entered for the compound `NC(N)=NOCC[C@H](N)C(=O)O` in this test?
[out] false

[in] Which outcome was entered for the compound COc1ccc(OC)c(C(O)C(C)N)c1 (configuration not stated) in this test?
[out] false

[in] Which outcome was entered for the compound `N[C@@H](CCl)C(=O)O` in this test?
[out] false

[in] Which outcome was entered for the compound CC(N)[C@H](O)c1ccc(O)c(O)c1 (some centres not stated) in this test?
[out] false

[in] Which outcome was entered for the compound `C[N+]1(C)CCC(OC(=O)C(c2ccccc2)c2ccccc2)CC1` in this test?
[out] true
